B1: Alpha-lactalbumin, P00712 (parent)
chain: MMSFVSLLLVGILFHATQAEQLTKCEVFQKLKDLKDYGGVSLPEWVCTAFHTSGYDTQAIVQNNDSTEYGLFQINNKIWCKDDQNPHSRNICNISCDKFLDDDLTDDIVCAKKILDKVGINYWLAHKALCSEKLDQWLCEKL

- Variants of: B1
- cond: Capra hircus; pH 2; 20 °C; Urea; CD; NaCl-HCl 100 mM; structure 1HFY; whole UniProt chain shown
parameter measured: denaturant m value (kcal/mol/M)
Value expressed in kcal/mol/M; do not type the unit.

A49T : 0.29

Input: What does the data say about its denaturant m value? Entry: T48I
Output: 0.31

Input: Data request, read-out denaturant m value, for T52I
Output: 0.39

Input: Could you tell me which denaturant m value is on file for A49I ?
Output: 0.33

Where these numbers come from: FireProtDB (doi:10.1093/protein/8.11.1153)
